Molecular target: glomerular TxA2 synthase (Rattus norvegicus, UniProt P49430)
Construct: from tissue; host or cells: isolated glomeruli of rat kidney (remnant kidney and sham operated rats)
Sequence (P49430 1-533): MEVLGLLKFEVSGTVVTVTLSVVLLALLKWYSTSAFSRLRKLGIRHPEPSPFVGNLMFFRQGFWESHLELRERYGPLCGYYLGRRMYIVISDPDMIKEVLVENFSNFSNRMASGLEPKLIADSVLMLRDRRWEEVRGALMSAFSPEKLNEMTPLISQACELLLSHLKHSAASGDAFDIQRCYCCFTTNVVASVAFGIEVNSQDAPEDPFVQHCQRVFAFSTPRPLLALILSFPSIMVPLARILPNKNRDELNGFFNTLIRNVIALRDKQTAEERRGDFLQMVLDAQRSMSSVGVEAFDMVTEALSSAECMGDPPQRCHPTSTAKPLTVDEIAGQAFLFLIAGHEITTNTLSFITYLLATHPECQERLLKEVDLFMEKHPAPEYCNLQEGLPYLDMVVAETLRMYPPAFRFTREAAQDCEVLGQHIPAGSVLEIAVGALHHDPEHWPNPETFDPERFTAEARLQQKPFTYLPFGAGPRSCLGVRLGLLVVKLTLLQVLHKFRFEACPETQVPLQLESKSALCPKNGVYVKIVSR
Assay: in vitro TxA2 synthase inhibiting activity in isolated glomeruli (TxB2 by RIA)
Format: biochemical
Conditions: glomeruli of RRM (remnant kidney) rats; read-out: IC50, glomerular TxB2 production
Kindly supply the reported IC50 values for the records listed here.

Entry under test: O=C(O)c1ccc2c(c1)C=C(n1ccnc1)CC2 [FCE 22178] . Its IC50 was 0.032 nM

Entry under test: Cl.O.O=C(O)/C=C/c1ccc(Cn2ccnc2)cc1 [OKYO46, monohydrochloride monohydrate, reference compound] . Its IC50 was 0.09 nM

---

biological target: glomerular TxA2 synthase (Rattus norvegicus); construct: from tissue; host or cells: isolated glomeruli of rat kidney (remnant kidney and sham operated rats); assay: in vitro TxA2 synthase inhibiting activity in isolated glomeruli (TxB2 by RIA); type: biochemical; details: glomeruli of control sham operated rats; read-out: IC50, glomeruli
quantity.name: IC50 (nM)
Numeric answer only, unit nM assumed.

Entry under test: Cl.O.O=C(O)/C=C/c1ccc(Cn2ccnc2)cc1 [OKYO46, monohydrochloride monohydrate, reference compound] . Its IC50 was 1

---

target: serum TxA2 synthase (Rattus norvegicus, UniProt P49430); construct: from tissue; host or cells: rat blood / serum (remnant kidney and sham operated rats); assay: in vitro TxA2 synthase inhibiting activity in serum (TxB2 by RIA); type: biochemical; settings: serum of RRM (remnant kidney) rats; read-out: IC50, serum TxB2 production / TxA2 synthesis
Kindly supply the reported IC50 values for the records listed here.
Numeric answer only, unit nM assumed.

Entry under test: Cl.O.O=C(O)/C=C/c1ccc(Cn2ccnc2)cc1 [OKYO46, monohydrochloride monohydrate, reference compound] . Its IC50 was 0.6

Entry under test: O=C(O)c1ccc2c(c1)C=C(n1ccnc1)CC2 . Its IC50 was 1.7
